tested_target: Thyrotropin-releasing hormone receptor (Homo sapiens)
assay_overview: qHTS for Small Molecule Agonists and Allosteric Enhancers of Human TRH Receptor: Primary Screen for Agonists. Further: 0% is about no effect.
measurement_setup: TRHR cells, calcium flux fluo-8, FDSS agonist mode; at 2 µM; active compounds read high
About 650 (0.18%) of roughly 360,000 compounds were called active. The entries come from a sample that favours actives as a whole.
property_label: activation (%)
Response body: numeric value in %, unit text excluded.

Example cases with answers are listed next.
| compound | activation [%] |
| --- | --- |
| CCOC(=O)c1c(S(=O)(=O)N2CCCC(C(=O)NCc3ccc(F)cc3)C2)c(C)n(CC)c1C (stereo not given) | -0.483 |
| COc1ccc(NC(=O)c2ccc3oc(=O)c(S(=O)(=O)c4ccc(F)cc4)cc3c2)c(OC)c1 | -0.513 |
| CC1=CC2=NC(=O)/C(=C/c3coc4ccccc4c3=O)C(=N)N2O1 | 111 |
| O=[S+]([O-])(c1ccc(OC(F)(F)F)cc1)N1CCN([S+](=O)([O-])c2ccc3c(c2)OCCO3)CC1 | -0.283 |

Input: Tell us which activation value is on record for Cc1cc(S(=O)(=O)c2cc3ccc(O)c(C)c3oc2=O)ccc1F
Output: 44.2

Input: Kindly indicate its recorded activation. Item: COc1ccccc1CNC(=O)NCc1noc2ccc(C)cc12
Output: -0.0554

Input: Kindly indicate its recorded activation. Item: Cc1ccccc1NC(=O)c1cc2c([nH]c1=O)CC(C)(C)CC2=O
Output: 1.28

Input: Given Cc1noc(C)c1-c1ccc2ncnc(NCc3ccc(F)c(F)c3)c2c1 , respond with its activation.
Output: 21.5

Input: Input COc1cc(Br)cc2cc(S(=O)(=O)c3ccccc3)c(=O)oc12 , output reported activation.
Output: 0.456

Input: Quickly give me recorded activation for O=C(CCS(=O)(=O)c1cc(Br)cc2c1N(C(=O)C1CC1)CC2)Nc1ccc(C(F)(F)F)cc1
Output: -0.155
